- assay-target: ROCK2 protein (Homo sapiens, UniProt O75116)
- Sequence (O75116 whole entry): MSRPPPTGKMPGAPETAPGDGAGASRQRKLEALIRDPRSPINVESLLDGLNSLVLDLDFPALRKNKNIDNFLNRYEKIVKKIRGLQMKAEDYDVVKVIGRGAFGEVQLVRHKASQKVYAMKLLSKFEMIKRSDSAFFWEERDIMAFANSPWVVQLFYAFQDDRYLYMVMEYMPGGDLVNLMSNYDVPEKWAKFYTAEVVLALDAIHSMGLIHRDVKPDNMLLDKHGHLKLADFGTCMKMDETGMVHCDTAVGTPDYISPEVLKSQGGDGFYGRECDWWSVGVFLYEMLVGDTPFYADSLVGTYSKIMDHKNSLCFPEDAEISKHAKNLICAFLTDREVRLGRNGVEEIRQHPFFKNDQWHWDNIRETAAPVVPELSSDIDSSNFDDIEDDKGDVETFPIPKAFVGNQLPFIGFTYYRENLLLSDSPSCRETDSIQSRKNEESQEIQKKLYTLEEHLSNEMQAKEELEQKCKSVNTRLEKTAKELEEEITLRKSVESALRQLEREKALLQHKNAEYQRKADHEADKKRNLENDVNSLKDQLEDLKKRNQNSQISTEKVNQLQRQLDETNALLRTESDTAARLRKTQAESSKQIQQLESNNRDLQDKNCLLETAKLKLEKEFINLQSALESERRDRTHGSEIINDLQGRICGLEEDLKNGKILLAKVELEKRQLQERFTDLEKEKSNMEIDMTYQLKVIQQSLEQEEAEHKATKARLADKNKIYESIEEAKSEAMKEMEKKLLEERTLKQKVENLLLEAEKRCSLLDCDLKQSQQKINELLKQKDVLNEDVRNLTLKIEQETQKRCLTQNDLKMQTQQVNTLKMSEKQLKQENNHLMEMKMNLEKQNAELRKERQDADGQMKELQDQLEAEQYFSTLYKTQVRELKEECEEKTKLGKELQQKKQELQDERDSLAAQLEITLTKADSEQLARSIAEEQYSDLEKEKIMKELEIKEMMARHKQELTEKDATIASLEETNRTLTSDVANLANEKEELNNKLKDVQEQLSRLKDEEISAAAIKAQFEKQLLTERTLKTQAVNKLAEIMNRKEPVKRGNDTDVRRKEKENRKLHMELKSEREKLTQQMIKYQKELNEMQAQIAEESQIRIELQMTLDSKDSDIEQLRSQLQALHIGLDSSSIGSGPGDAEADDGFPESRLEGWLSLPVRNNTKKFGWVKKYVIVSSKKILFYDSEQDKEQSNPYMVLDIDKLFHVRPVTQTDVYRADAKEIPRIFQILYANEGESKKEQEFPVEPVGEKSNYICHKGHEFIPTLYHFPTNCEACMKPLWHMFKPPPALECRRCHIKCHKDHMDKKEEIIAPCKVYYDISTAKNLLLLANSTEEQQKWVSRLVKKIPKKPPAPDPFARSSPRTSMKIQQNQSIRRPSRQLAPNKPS
- experiment-summary: Degradation inducing activity of ROCK2 protein in HUVEC cells, Western blotting (Simple Western JESS)
- Assay type: cell-based
- Set-up: endogenous in cells; host or cells: HUVEC (ATCC CRL-1730)
- stated-conditions: HUVEC, 24 h, degradation rate at 1 µM
Entries annotated with measured inhibition at 1 µM

Worked cases, inhibition at 1 µM given:
Kindly indicate its recorded inhibition at 1 µM. Item: COC[C@H]1CN[C@H](C)CN1CC(=O)N1CC(C)(C)c2nc(CN(C)CCOCCOCCOCCOCCNC[C@@H](C(=O)Nc3ccc4cnccc4c3)c3ccccc3)c(Cc3ccc(F)cc3)cc21 25 to 50%

Kindly indicate its recorded inhibition at 1 µM. Item: COC[C@H]1CN[C@H](C)CN1CC(=O)N1CC(C)(C)c2nc(CN(C)CCOCCOCCOCCOCCOCCOCCNC[C@@H](C(=O)Nc3ccc4cnccc4c3)c3ccccc3)c(Cc3ccc(F)cc3)cc21 50 to 75%

The record that follows has no inhibition at 1 µM shown yet.
Kindly indicate its recorded inhibition at 1 µM. Item: COC[C@H]1CN[C@H](C)CN1CC(=O)N1CC(C)(C)c2nc(CN(C)CCOCCOCCOCCOCCN[C@H](C)c3ccc(C(=O)Nc4ccncc4)cc3)c(Cc3ccc(F)cc3)cc21 ≥ 75%

---

- assay-target: ROCK2 protein (Homo sapiens, UniProt O75116)
- experiment-summary: Degradation inducing activity of ROCK2 protein in HUVEC cells, Western blotting (Simple Western JESS)
- Assay type: cell-based
- Design: endogenous in cells; host or cells: HUVEC (ATCC CRL-1730)
- stated-conditions: HUVEC, 24 h, degradation rate at 1 µM
Entries annotated with measured inhibition at 1 µM

Worked cases, inhibition at 1 µM given:
Kindly indicate its recorded inhibition at 1 µM. Item: COC[C@H]1CN[C@H](C)CN1CC(=O)N1CC(C)(C)c2ncc(Cc3ccccc3OCCOCCOCCNC[C@@H](C(=O)Nc3ccc4cnccc4c3)c3ccccc3)cc21 ≥ 75%

Kindly indicate its recorded inhibition at 1 µM. Item: COC[C@H]1CN[C@H](C)CN1CC(=O)N1CC(C)(C)c2ncc(Cc3cccc(OCCOCCOCCN[C@H](C)c4ccc(C(=O)Nc5ccncc5)cc4)c3)cc21 50 to 75%

Kindly indicate its recorded inhibition at 1 µM. Item: COC[C@H]1CN[C@H](C)CN1CC(=O)N1CC(C)(C)c2nc(CN(C)CCOCCOCCOCCOCCOCCOCCN[C@H](Cc3cccc(F)c3)C(=O)Nc3ccc(-c4ccncc4)cc3)c(Cc3ccc(F)cc3)cc21 < 25%

More entries:
Kindly indicate its recorded inhibition at 1 µM. Item: COC[C@H]1CN[C@H](C)CN1CC(=O)N1CC(C)(C)c2ncc(Cc3ccccc3OCCOCCOCCOCCOCCN[C@H](C)c3ccc(C(=O)Nc4ccncc4)cc3)cc21 < 25%

Kindly indicate its recorded inhibition at 1 µM. Item: COC[C@H]1CN[C@H](C)CN1CC(=O)N1CC(C)(C)c2ncc(Cc3cccc(OCCOCCOCCOCCN[C@H](Cc4cccc(F)c4)C(=O)Nc4ccc(-c5ccncc5)cc4)c3)cc21 25 to 50%

---

Entries annotated with measured inhibition at 10 µM
- assay-target: ROCK2 protein (Homo sapiens, UniProt O75116)
- experiment-summary: Degradation inducing activity of ROCK2 protein in HUVEC cells, Western blotting (Simple Western JESS)
- Assay type: cell-based
- Design: endogenous in cells; host or cells: HUVEC (ATCC CRL-1730)
- stated-conditions: HUVEC, 24 h, degradation rate at 10 µM

Kindly indicate its recorded inhibition at 10 µM. Item: COC[C@H]1CN[C@H](C)CN1CC(=O)N1CC(C)(C)c2nc(CN(C)CCOCCOCCOCCOCCOCCOCCOCCN[C@H](C)c3ccc(C(=O)Nc4ccncc4)cc3)c(Cc3ccc(F)cc3)cc21 [Example 28] < 25%

Kindly indicate its recorded inhibition at 10 µM. Item: COC[C@H]1CN[C@H](C)CN1CC(=O)N1CC(C)(C)c2nc(CN(C)CCOCCOCCOCCN[C@H](C)c3ccc(C(=O)Nc4ccncc4)cc3)c(Cc3ccc(F)cc3)cc21 [Example 24] 50 to 75%

The record that follows has no inhibition at 10 µM shown yet.
Kindly indicate its recorded inhibition at 10 µM. Item: C[C@@H]1CN(CC(=O)N2CC(C)(C)c3ncc(Cc4ccc(F)cc4)cc32)[C@@H](CN(C)CCOCCOCCOCCOCCOCCOCCOCCNC[C@@H](C(=O)Nc2ccc3cnccc3c2)c2ccccc2)CN1 [Example 21] 50 to 75%
